System: IL-12 induced Th1 differentiation (splenic T cells)
ASSAY_METHOD_TEXT: IL-12 dependent in vitro T-helper cell (Th1) differentiation assay, IFN-γ production upon secondary anti-CD3 stimulation
Format: cell-based
MEASUREMENT_SETUP: read-out: IC50, inhibition of IL-12 induced Th1 differentiation as defined by IFN-γ production
REPORTED_METRIC: IC50 (µM)
Provide the reading as a plain figure in µM.

Entry "CNc1nc2c([nH]1)c(=O)n(CCCC[C@@H](C)O)c(=O)n2C" , IC50 reported as 25

C[C@@H](O)CCCCn1c(=O)c2[nH]c(=O)[nH]c2n(C)c1=O [CT12452, (R)-1-(5-hydroxyhexyl)-3-methyluric acid] yielded IC50 of 35
